All figures here come from the nanobody polyreactivity screen of Harvey et al. (2022).

- protocol: yeast display, Sf9 membrane polyspecificity reagent, FACS + sequencing; frameworks hold sequencing errors
property_name: polyreactivity (PSR sort gate)

Example entries begin here.
QVQLVESGGGLVQAGGSLRLSCAASGSTFGGYAMGWNRQAPGKEREWVAAISQSGTRTYYADSVKGRFTISRDNAKNTVYLQMNSLKPEDTAVYYCAAVKRFRKYDYWGQGTQVTVSS	high polyreactivity
QVQLVESGGGLVQAGGSLRLSCAASGIILYRNVLGWYRQAPGKERELVASINRGSDSTYYADSVKGRFTISRDNEKNTVYLHMNSLKPEDTAVYYCAAVYVYGVEMDYWGQGTQVTVSS	low polyreactivity
QVQLVESGGGLVQAGGSLRLSCAASGSIFRNYAMGWYRQAPGKEREFVAAISGGGGSTYYADSVKGRFTISRDNAKNTVYLQMNSLKPEDTAVYYCARVRYYGALKLYAYDHWGQGTQVTVSS	high polyreactivity
QVQLVESGGGIVQAGGSLRLSCAASGNIFSYKAMGWYRQAPRTERELVDAISRSGGSTYYADSVKGRFTISRDNAKNTVYLQMNSLKPEDTAVYYCAADWRGRKYDYWGQGTQVTVSS	high polyreactivity
QDQLVESGGGLVQAGASLRLSCAASGSIFYHNTMGWYRQAPGKERELLTYYADSVKRRFTISRDNAKNTVYLQMNSLKPEDTAVYYCAASPVSRTGPGDYDYWGQGTQVTVSS	low polyreactivity
QVQLVESGGGLVQAGGSLRLSCAASGFTFSTNAMGWYRPAPGKERELVAAISPDGGTYYADSVKGRFTISRDNAKNTVYLQMNSLIPEDTAVYYCAAVWGRGVWDLYDYWGQGTQVTVSS	low polyreactivity

Query: Looking for the measured polyreactivity (PSR sort gate) of `QVQLVESGGGLVQAGGSLRLSCAASGRTFFGYARGWYRQAPGKEREFVARISWRGTSTTYADSVKGRFTISRDNAKNTVYLEMNSLKPEDTAVYYCAASPYGLRVYFTVGYWGQGTQVTVSS` , can you help?
Result: high polyreactivity

Query: Record: `QVQLVQSGGGLLQAGGSLRLSSAASGYTFGYYARGCYREAPGQERELVAAITSGGTTNYADTVKGRFTISRDNAKNTVYLQINSLKPEDTAVSYCNAVCTFVRYWTDGRDGVTYDYWGQGTQVTVSS`
Result: low polyreactivity

Query: Record: `QVQLVESGGGLVQAGGSLRLICAASGSTFEQYAMGWYRQAPGKERELVAAINRGGSTYYADSVKGRFTISRDNAKNTVYLQMNSLKPEDTAVYYCAVYAFVRYRSRYGYWGQGTQVTVSS`
Result: high polyreactivity

Query: Record: `HVQLVESGGGIVQAGGILRLSCAASGRIFSVYTMGWYRKAPGQERELVAAISSGASTNYADSVKGRFTISRDNAKNTVYLQMNSLKPEDTAVYYCAKEYGIYTDTPYYYWGQGTQVTVSS`
Result: low polyreactivity

Query: Record: `QVQLVESGGGLLQAGGSLRLSCAASGIILYWNTMGWYRQAPGKERELVAAITWSVGRTYYADSVKGRFTISRDNAKNTVYLQMNSLKPEDTAVYYCNAGYDSYSRDYWGQGTQVTVSS`
Result: low polyreactivity

====

- protocol: yeast display, Sf9 membrane polyspecificity reagent, FACS + sequencing; frameworks hold sequencing errors
property_name: polyreactivity (PSR sort gate)

QVQLVESGGGLVQAGGSLRLSCAASGFTFSSYARGWYRQAPGKEREFVAAIRFSGGSTYYADSVKGRFTISRDNAMNTVYLQMNSLKPVDTAVYYCAKRWGIWPRGYYWGQGTQVSVSS	low polyreactivity
QVQLVESGGGLVQAGGSLRLSCAASGFNFRKYAMGWYRQAPGKERELVASITSGGGSTYYADSVKGRFTISRDNAKNTVYLQMNSLKPEDTAVYYCAAVAYTGGPRKLGFNYWGQGTQVTVSS	high polyreactivity
QVQLVESGGCLVQAGGSLSLSCAASGSTFVAYAMGWYRQAPGKESELVAAISKSGVRTYYADYVKGRFTISRDNAKNTVYLQMNSLKPEDSAFYYCAALTYYSQVTSSVSLQQYGYWGQVTQVTVSS	low polyreactivity
QVQLVESGGGLVQAGGSLRLSCAASGGIFAYNAMGWYRQAPGKERELVATISYSGGSTYYADSVKGRFTISRDNAKNTVYLQMNSLKPEDTAVYYCATRLYGWRGRYNYWGQGTQVTVSS	high polyreactivity
QVQLVESGGGLVQAGGSLRLSCAASGITFNKYAMGWYRQAPGKERELVAAISSRGGSTYYADSVKGRFTISRDNAKNTVYLQMNSLKPEDTAVYYCNADVYRASNFDYWGQGTQVTVSS	high polyreactivity

Query: Looking for the measured polyreactivity (PSR sort gate) of `QVQLVESGGGLVQAGGSLRLSCAASGSIFSGNAMGGYRQAPGKERELVAAISRTGTRTFYADSEKGRFTISRDNAKNTVYLQMNSLKPEDTAVYYCAADNPDGDGYDYWGQGTQVTVSS` , can you help?
Result: high polyreactivity

====

- protocol: yeast display, Sf9 membrane polyspecificity reagent, FACS + sequencing; frameworks hold sequencing errors
property_name: polyreactivity (PSR sort gate)

Example entries begin here.
QVQLLESGGGLVQAGGSLRLSCAASGRTFAWNAMGWYRQAPGNERELVARLRSSGSTYYADSVKGRFTISRDNAKNTVYLQMNSLKPEDTAVYYGAKKWGWFPVYYWGQGTQVTVSS	high polyreactivity
QVQLVESGGGLVQAGGSLRLSCAASGIIFGPNAMGWYRQAPGKERELVAGIDWSTDSTYYADSVKGRFTLSRDNAKNTVYLQMNSLKPEDTAVYYCAVAENKRFGSVGYYYWGQGTQVTVSS	low polyreactivity
QVQLVESGGGLVQAGGSLRLICAASGSTFEHYAMGWYRPAPGKERELVAAITRRGGSTYYADSVKGRFTISRDNAKNTVYLQMNSLKPEDTAVYDCNTDLRYSYYLPGYDYWGQGPQVTVSS	high polyreactivity
QVQREESGGGLVQAGGSLRLSCAASGNIFYQYAMGWYRLAPGKEREFVAAISISGTSTYADSVKGRFTISRDNAKNTVYLQMNSLKPVDTAVYWGQGTQVTVSS	low polyreactivity
QVQLVESGGGLVQAGGSLRLSCAASGSIFSFYSMGWYRQAPGKERELVSGITWSGGSTYYADSVKGRFTISRDNAKNTVYLQMNSLKPEDTAVYYCAKTKWYYWYTSFPSVQSYDYWGQGTHVTVSS	high polyreactivity
QVQLVESGGGLVQAGGSLRLSCAASGNTFVRNVMGWYRQAPGKERELVAAITWRSVRTYYADSVKGRFTISRDTAKNTVYLQMNSLKPEDTAVYYCAAASASRHGEYDYWGQGTQVTVSS	low polyreactivity
QVQLVESGGGLVHAGGSLRLSCAASGSIFGYYTMGWYRQAPGKERELDAAITSGGSTNYADSVKGRFTISRDNAKNTVYLEMNSLKPEDTAVYYCAKVSYYPWRYDDWGQGTKVTVSS	low polyreactivity
QVQLVESGGGLVQAGGSLRLSCAASGRIFYGYAMGWYRQAPGKERELVAAISSGGITYYADSVKGRFTISRDNAKNTVYLQMNSLKPEDTAVYYCAATVLGDYEYWGQGTQVTVSS	low polyreactivity

Query: Looking for the measured polyreactivity (PSR sort gate) of `QVQLVESGGGLVQAGGSLRLSCAASGRILGYYAMGWYRQAPGKERDLVAAISRAGSTNYADSVKGRFTISRDNAKNTVYLQMNSLKAEDTAVYYCAARPYRRGYNYWGQGTQVTVSS` , can you help?
Result: high polyreactivity

Query: Record: `QVQLVESGGGLVQAGGSLRLSCAASGSIFYHYVMGWYRQAPGKDRELVAGISWSGVSTYYADSVKGLFTISRDNAKNTVYLQMNSLKPEDTAVYYCAAVYRQSRLHTFGYWGQGTQVTVSS`
Result: high polyreactivity

Query: Record: `QFQLVESGGGLVQAGGILRLSCAASGFTFRVNAMGWYRQAPGKERELVASITVSDGRTYYADSVKGRFTISRDNAKNTVYLQMNSLKPEDCAVYYCAADYKGAFTTDWSSEYEYWGQGTQVTVSS`
Result: low polyreactivity

====

- protocol: yeast display, Sf9 membrane polyspecificity reagent, FACS + sequencing; frameworks hold sequencing errors
property_name: polyreactivity (PSR sort gate)

Example entries begin here.
QVQLEESGGGLVQAGGSLRLSCAASGSIFGYNHMGWYRQAPGKERELVATITWGGGRTRYADSVKGRFTISRVNAKNTVYLQMNSLKPEDTAVYYCAADKRSYSYVRPPRNHEDYWGQGTQVTVSS	low polyreactivity
QVQLVESGGGLVQAGGSLRLSCPASGSIFSLNAMGWSRQAPGKERELVAASGGGSTYYADSVKGRFTISRDNAKNTVYLQMNSLKPEDTAVYYCAARVLTDELDYWGQGTQVTVSS	low polyreactivity
QVQLVESVGGLVQAGGSLRLSCAASGFTFDYYSMGWYRQATGKERELVAAITTAGSTNYADSVKGRFTISRDNAKNTVSLQINSLKPEDTAVYYCAAYWWPWDISWDDYWGQGTQVNVSS	high polyreactivity
QDHLVESGGGLVQAGGSLRLSCAASGRIFFGYAMGWYRQATGKERELVATISYNDTSTYYADSVKGRFTISRDNAKNTVYLQMNCLKPEDTAVNYCSKSLGAPASDVYWGQGTQVTVSS	low polyreactivity
QVQLVEAGGGLVQAGGSLRLSCAASGSTFVKNAMGWYRQAPGKERELVAAISYRGGRTYYADSVKRRFTISRDNAKNTVYLQMNSLKPEDTAVYYCAADASHLTGYEYWGQGTQGTVSS	high polyreactivity

Moving on to the next sequence.
Query: Looking for the measured polyreactivity (PSR sort gate) of `QVQLVESGGGLVQAGGSLRLSCAASGSIFAWYGMGWYRQAPGKERELVAAISTAGSTNYADSVKGRFTISRDNAKNTVYLQMNSLKPEDTAVYDCAKKSSWYYPERFDYWGQGTQVTVSS` , can you help?
Result: low polyreactivity
